# System tested: Cholinesterase (Equus caballus, UniProt P81908)
# Sequence (P81908 whole entry): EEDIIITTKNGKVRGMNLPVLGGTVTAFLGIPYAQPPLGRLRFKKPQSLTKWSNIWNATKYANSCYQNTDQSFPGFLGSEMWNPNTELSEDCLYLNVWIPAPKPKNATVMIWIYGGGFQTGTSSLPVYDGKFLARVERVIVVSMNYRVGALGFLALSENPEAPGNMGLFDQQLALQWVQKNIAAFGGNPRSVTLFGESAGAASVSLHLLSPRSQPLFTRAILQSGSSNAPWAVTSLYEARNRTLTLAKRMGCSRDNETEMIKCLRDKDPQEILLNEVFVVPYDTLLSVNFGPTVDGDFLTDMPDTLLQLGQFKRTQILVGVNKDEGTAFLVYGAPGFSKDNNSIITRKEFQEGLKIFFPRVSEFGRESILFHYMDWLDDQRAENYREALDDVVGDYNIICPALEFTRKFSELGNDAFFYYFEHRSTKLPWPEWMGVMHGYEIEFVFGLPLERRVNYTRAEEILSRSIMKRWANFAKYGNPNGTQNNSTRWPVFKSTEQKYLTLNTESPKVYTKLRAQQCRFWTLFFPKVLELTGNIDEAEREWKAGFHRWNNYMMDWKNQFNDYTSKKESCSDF
# Protocol: Inhibition of equine serum BuChE using ATCI and BTCI as substrate preincubated for 5 mins followed by substrate addition and measured after 3 mins by DTNB-reagent based Ellman's method
Reported metric: log10 IC50 (log10 of the value in nM)
Heads up: the numbers are on a log10 scale; they represent IC50 in nM.

[Q] Tell me measured log10 IC50 for COc1ccc2c(c1)c(C=O)cn2CCCCCCCN(C)Cc1ccc(O)cc1 please.
[A] 3.32

[Q] Identify measured log10 IC50 corresponding to COc1ccc2c(c1)c(C=O)cn2CCCCCCN(C)Cc1ccc(O)cc1
[A] 3.86

[Q] Name the recorded log10 IC50 of the item COc1ccc2c(c1)c(C=O)cn2CCCCCCCCCCCCN(C)Cc1cccc(O)c1 in your answer.
[A] 2.49

[Q] Provide log10 IC50 value for the following molecule: CN(CCCCCCCCCCCCn1cc(C=O)c2cc(O)ccc21)Cc1cccc(O)c1
[A] 3.33

[Q] State, in one line, measured log10 IC50 of COc1ccc2c(c1)c(C=O)cn2CCCN(C)Cc1cccc(O)c1
[A] 4.86

[Q] Check the records and state log10 IC50 for COc1ccc2c(c1)c(C=O)cn2CCCCCCN(C)Cc1cccc(O)c1
[A] 4.21

[Q] Answer with the recorded log10 IC50 for the molecule listed here: COc1ccc2c(c1)c(C=O)cn2CCCCCCCCCN(C)Cc1cccc(O)c1
[A] 3.21

[Q] State its log10 IC50: COc1ccc2c(c1)c(C=O)cn2CCCCCCCCCCN(C)Cc1ccc(O)cc1
[A] 2.08

[Q] Quote log10 IC50 reported for COc1ccc2c(c1)c(C=O)cn2CCCCCN(C)Cc1ccc(O)cc1 please.
[A] 3.79
